# protocolSummary: logP determination by HPLC on reversed-phase columns (C 18), EEC Directive 79/831 Annex V.A8
# Type: physicochemical
# appliedConditions: HPLC, reversed-phase C 18; table value without method mark; read-out: logP
Is chromatographic logP at least 3? Then label 1. If not, label 0.

Recorded results for 5 compounds are shown here.
COC(=O)N(C)NC(=O)c1cc(C#N)cc(C)c1NC(=O)c1cc(Cn2cnc(C(F)(F)F)c2C(F)(F)F)nn1-c1ncccc1Cl | label 0
COC(=O)NNC(=O)c1cc(Cl)cc(C)c1NC(=O)c1cc(Cn2nnc(C(F)(F)C(F)(F)C(F)(F)F)n2)nn1-c1ncccc1Cl | label 1
COC(=O)N(C)N(C)C(=O)c1cc(C#N)cc(C)c1NC(=O)c1cc(Cn2nnc(C(F)(C(F)(F)F)C(F)(F)F)n2)nn1-c1ncccc1Cl | label 1
COC(=O)N(C)NC(=O)c1cc(I)cc(C)c1NC(=O)c1cc(Cn2cnc(C(F)(F)F)c2C(F)(F)F)nn1-c1ncccc1Cl | label 1
COC(=O)N(C)N(C)C(=O)c1cc(Cl)cc(C)c1NC(=O)c1cc(Cn2cc(-c3ccc(Cl)cc3)nn2)nn1-c1ncccc1Cl | label 1

Could you please find out whether COC(=O)N(C)NC(=O)c1cc(Cl)cc(C)c1NC(=O)c1cc(Cn2nc(C(F)(F)C(F)(F)C(F)(F)F)cc2C)nn1-c1ncccc1Cl has chromatographic logP that meets 3 or exceeds it? label 1

Check the entry COC(=O)N(C)NC(=O)c1cc(Cl)cc(C)c1NC(=O)c1cc(CNS(=O)(=O)c2ccccc2C(F)(F)F)nn1-c1ncccc1Cl : does chromatographic logP equal or exceed 3? label 0

Is chromatographic logP at least 3? Consider COC(=O)N(C)NC(=O)c1cc(Cl)cc(Cl)c1NC(=O)c1cc(Cn2cnc(C(F)(F)F)c2C(F)(F)F)nn1-c1ncccc1Cl label 1

Determine whether measured chromatographic logP meets or exceeds 3 for COC(=O)N(C)NC(=O)c1cc(Cl)cc(Cl)c1NC(=O)c1cc(Cn2nc(C(F)(F)F)cc2C(F)(F)F)nn1-c1ncc(C(F)(F)F)cc1Cl label 1

Has COC(=O)N(C)NC(=O)c1cc(Cl)cc(Cl)c1NC(=O)c1cc(Cn2nc(C(F)(F)F)c([N+](=O)[O-])c2C)nn1-c1ncccc1Cl a recorded chromatographic logP greater than or equal to 3? label 1

---

# protocolSummary: logP determination by HPLC on reversed-phase columns (C 18), EEC Directive 79/831 Annex V.A8
# Type: physicochemical
# appliedConditions: HPLC, reversed-phase C 18; table value without method mark; read-out: logP
quantityMeasured: chromatographic logP
I only need the number, thanks.

Answered examples (2):
COC(=O)N(C)NC(=O)c1cc(Cl)cc(Cl)c1NC(=O)c1cc(Cn2nc(C(F)(F)F)cc2-c2ccccc2)nn1-c1ncccc1Cl | 3.82
COC(=O)N(C)NC(=O)c1cc(C(F)(F)F)cc(C)c1NC(=O)c1cc(Cn2nnc(C(F)(F)C(F)(F)F)n2)nn1-c1ncccc1Cl | 3.55

Output measured chromatographic logP for this item: COC(=O)N(C)NC(=O)c1cc(Cl)cc(Cl)c1NC(=O)c1cc(Cn2nc(C(F)(F)C(F)(F)F)cc2C(F)(F)C(F)(F)F)nn1-c1ncccc1Cl 4.3

---

# protocolSummary: logP determination by HPLC on reversed-phase columns (C 18), EEC Directive 79/831 Annex V.A8
# Type: physicochemical
# appliedConditions: HPLC, reversed-phase C 18; table value without method mark; read-out: logP
Catalogue of chromatographic logP readings, one per entry.
API doc: respond with a numeric literal and nothing else, no unit.

COC(=O)N(C)NC(=O)c1cc(Cl)cc(C)c1NC(=O)c1cc(Cn2nc(C(F)(F)C(F)(F)F)cc2C(F)(F)C(F)(F)F)nn1-c1ncccc1Cl [Example 13] | 4.32

For COC(=O)N(C)NC(=O)c1cc(C#N)cc(C)c1NC(=O)c1cc(Cn2nnnc2C(F)(F)F)nn1-c1ccccc1Cl [Example 55] , write its chromatographic logP. 2.69

Return reported chromatographic logP. Input compound: COC(=O)N(C)NC(=O)c1cc(Cl)cc(C)c1NC(=O)c1cc(Cn2nnc(C(F)(F)F)n2)nn1-c1ccccc1Cl [Example 85] 3.34

---

# protocolSummary: logP determination by HPLC on reversed-phase columns (C 18), EEC Directive 79/831 Annex V.A8
# Format: physicochemical
# appliedConditions: HPLC, reversed-phase C 18; value in text of the Preparation Examples; read-out: logP
quantityMeasured: chromatographic logP
Reply with the value as a number alone.

COC(=O)N(C)NC(=O)c1cc(Cl)cc(C)c1NC(=O)c1cc(Cn2nnc(C(F)(F)C(F)(F)C(F)(F)F)n2)nn1-c1ncccc1Cl [Example 1] | 3.66

Lab note: next compound to report on.
Supply recorded chromatographic logP for COC(=O)NNC(=O)c1cc(I)cc(C)c1NC(=O)c1cc(Cn2nnc(C(F)(F)C(F)(F)C(F)(F)F)n2)nn1-c1ncccc1Cl [Example 2] here. 3.58

---

# protocolSummary: logP determination by HPLC on reversed-phase columns (C 18), EEC Directive 79/831 Annex V.A8
# Type: physicochemical
Listed here: items and their measured chromatographic logP.
Just the number.

The cases that follow already have their chromatographic logP on record.
COC(=O)N(C)NC(=O)c1cc(Cl)cc(C)c1NC(=O)c1cc(Cn2nnc(C(F)F)n2)nn1-c1ncccc1Cl | 2.49
COC(=O)N(C)NC(=O)c1cc(Cl)cc(Cl)c1NC(=O)c1cc(Cn2nc(C(F)(F)F)cc2C)nn1-c1ncccc1Cl | 3.1
COC(=O)N(C)NC(=O)c1cc(Cl)cc(Cl)c1NC(=O)c1cc(Cn2nc(C(F)F)cc2C(F)F)nn1-c1ncccc1Cl | 2.9
COC(=O)NNC(=O)c1cc(C#N)cc(C)c1NC(=O)c1cc(Cn2nnc(C(F)(F)F)n2)nn1-c1ncccc1Cl | 2.41
COC(=O)N(C)NC(=O)c1cc(C#N)cc(C)c1NC(=O)c1cc(Cn2cc(C(F)(F)F)nn2)nn1-c1ncccc1Cl | 2.3

Shifting focus to the compound that follows.
Supply measured chromatographic logP of COC(=O)N(C)N(C)C(=O)c1cc(C#N)cc(C)c1NC(=O)c1cc(Cn2nnc(C(F)(F)F)n2)nn1-c1ncccc1Cl in your reply. 2.97

---

# Test system: green peach aphid (Myzus persicae)
# protocolSummary: Myzus test (MYZUPE spray treatment)
# Type: in vivo
# appliedConditions: in Brassica rapa, foliar, 144 h, read-out: activity (aphids killed)
Below is a list of entries, each paired with its recorded pest or weed control at 100 g/ha value.
Field: value (include unit after the number)

Annotate the compound COC(=O)N(C)NC(=O)c1cc(Cl)cc(C)c1NC(=O)c1cc(Cn2nnc(C(F)(F)C(F)(F)C(F)(F)F)n2)nn1-c1ncccc1Cl with its measured pest or weed control at 100 g/ha. 100%

Input COC(=O)N(C)NC(=O)c1cc(Cl)cc(C)c1NC(=O)c1cc(Cn2cc(C3CC3)nn2)nn1-c1ncccc1Cl , output reported pest or weed control at 100 g/ha. 100%

---

# protocolSummary: logP determination by HPLC on reversed-phase columns (C 18), EEC Directive 79/831 Annex V.A8
# Assay type: physicochemical
Please mark Yes if the recorded chromatographic logP is equal to or greater than 3, and No if it falls below.

COC(=O)N(C)NC(=O)c1cc(I)cc(C)c1NC(=O)c1cc(Cn2nnc(C(F)(F)F)n2)nn1-c1ncccc1Cl | Yes
COC(=O)N(C)NC(=O)c1cc(I)cc(C)c1NC(=O)c1cc(Cn2ncc(C(F)(F)F)n2)nn1-c1ncccc1Cl | No
COC(=O)N(C)NC(=O)c1cc(I)cc(C)c1NC(=O)c1cc(Cn2cnc(C(F)(F)F)n2)nn1-c1ncccc1Cl | No
COC(=O)N(C)NC(=O)c1cc(I)cc(C)c1NC(=O)c1cc(Cn2cnc(C(F)(F)F)c2)nn1-c1ncccc1Cl | No
COC(=O)N(C)NC(=O)c1cc(Cl)cc(Cl)c1NC(=O)c1cc(Cn2nc(C(F)(F)F)c(Cl)c2C)nn1-c1ncccc1Cl | Yes
COC(=O)N(C)N(C)C(=O)c1cc(Cl)cc(C)c1NC(=O)c1cc(Cn2cc(C3CC3)nn2)nn1-c1ncccc1Cl | No

I'd appreciate it if you could say whether COC(=O)N(C)NC(=O)c1cc(C(F)(F)F)cc(C)c1NC(=O)c1cc(Cn2nnc(C(F)(F)F)n2)nn1-c1ncccc1Cl has chromatographic logP at least equal to 3. Yes

I'd appreciate it if you could say whether COC(=O)NNC(=O)c1cc(I)cc(C)c1NC(=O)c1cc(Cn2cnc(C(F)(F)F)c2)nn1-c1ncccc1Cl has chromatographic logP at least equal to 3. No

Hi, just wondering whether COC(=O)N(C)NC(=O)c1cc(I)cc(C)c1NC(=O)c1cc(Cn2cc(C(F)(F)F)nn2)nn1-c1ncccc1Cl shows chromatographic logP of 3 or higher. Yes

Could you please find out whether COC(=O)N(C)NC(=O)c1cc(Cl)cc(Cl)c1NC(=O)c1cc(Cn2nnc(C(F)(F)C(F)(F)F)n2)nn1-c1ncccc1Cl has chromatographic logP that meets 3 or exceeds it? Yes

Test whether the compound COC(=O)NNC(=O)c1cc(Cl)cc(C)c1NC(=O)c1cc(Cn2cc(C3CC3)nn2)nn1-c1ncccc1Cl records chromatographic logP of 3 or higher. No

Could you tell me if the measured chromatographic logP of COC(=O)N(C)NC(=O)c1cc(C#N)cc(C)c1NC(=O)c1cc(Cn2ncc(C(F)(F)F)n2)nn1-c1ncccc1Cl reaches 3 or more? No

Item COC(=O)N(C)NC(=O)c1cc(Br)cc(C)c1NC(=O)c1cc(Cn2nnc(C(F)F)n2)nn1-c1ncccc1Cl with chromatographic logP of 3 or above? No

Does COC(=O)N(C)NC(=O)c1cc(Cl)cc(C)c1NC(=O)c1cc(Cn2cnc(SC)n2)nn1-c1ncccc1Cl have a reported chromatographic logP of at least 3? No

Form field: chromatographic logP at least 3? Entry: COC(=O)N(C)NC(=O)c1cc(C#N)cc(C)c1NC(=O)c1cc(COc2ccc(C(F)(F)F)nn2)nn1-c1ncccc1Cl No

Dear colleague, could you confirm whether COC(=O)N(C)NC(=O)c1cc(I)cc(C)c1NC(=O)c1cc(Cn2nnnc2C(F)(F)F)nn1-c1ncccc1Cl has chromatographic logP at or above 3? No

State whether the measured chromatographic logP reaches 3, counting equality as reaching it, for COC(=O)N(C)NC(=O)c1cc(Cl)cc(C)c1NC(=O)c1cc(Cn2cc(-c3ccc(Cl)cc3)nn2)nn1-c1ncccc1Cl Yes

Evaluate COC(=O)N(C)NC(=O)c1cc(Cl)cc(C)c1NC(=O)c1cc(CNS(=O)(=O)c2ccccc2)nn1-c1ncccc1Cl : chromatographic logP at minimum 3? No

Could you please find out whether COC(=O)N(C)NC(=O)c1cc(Br)cc(C)c1NC(=O)c1cc(Cn2nnc(C(F)(F)C(F)(F)F)n2)nn1-c1ncccc1Cl has chromatographic logP that meets 3 or exceeds it? Yes

Determine whether this compound has chromatographic logP no lower than 3: COC(=O)N(C)NC(=O)c1cc(C#N)cc(C)c1NC(=O)c1cc(Cn2nnc(C(F)F)n2)nn1-c1ncccc1Cl No

Exam item: decide whether the reported chromatographic logP for COC(=O)N(C)NC(=O)c1cc(Cl)cc(Cl)c1NC(=O)c1cc(Cn2nc(C(F)(F)F)c(Br)c2C)nn1-c1ncccc1Cl is at least 3. Yes

# bool: chromatographic logP of COC(=O)N(C)NC(=O)c1cc(Cl)cc(C)c1NC(=O)c1cc(Cn2nnc(C(F)(F)C(F)(F)F)n2)nn1-c1ncccc1Cl >= 3 Yes
